biological target: KDR(h) (Homo sapiens); construct: purchased Upstate Biotechnology (Dundee, UK), KinaseProfiler service; test: Upstate KinaseProfiler enzyme assay, KDR; format: biochemical; settings: 500 nM compound; read-out: Percent inhibition at 500 nM KDR(h)
Sequence (P35968 20-1356): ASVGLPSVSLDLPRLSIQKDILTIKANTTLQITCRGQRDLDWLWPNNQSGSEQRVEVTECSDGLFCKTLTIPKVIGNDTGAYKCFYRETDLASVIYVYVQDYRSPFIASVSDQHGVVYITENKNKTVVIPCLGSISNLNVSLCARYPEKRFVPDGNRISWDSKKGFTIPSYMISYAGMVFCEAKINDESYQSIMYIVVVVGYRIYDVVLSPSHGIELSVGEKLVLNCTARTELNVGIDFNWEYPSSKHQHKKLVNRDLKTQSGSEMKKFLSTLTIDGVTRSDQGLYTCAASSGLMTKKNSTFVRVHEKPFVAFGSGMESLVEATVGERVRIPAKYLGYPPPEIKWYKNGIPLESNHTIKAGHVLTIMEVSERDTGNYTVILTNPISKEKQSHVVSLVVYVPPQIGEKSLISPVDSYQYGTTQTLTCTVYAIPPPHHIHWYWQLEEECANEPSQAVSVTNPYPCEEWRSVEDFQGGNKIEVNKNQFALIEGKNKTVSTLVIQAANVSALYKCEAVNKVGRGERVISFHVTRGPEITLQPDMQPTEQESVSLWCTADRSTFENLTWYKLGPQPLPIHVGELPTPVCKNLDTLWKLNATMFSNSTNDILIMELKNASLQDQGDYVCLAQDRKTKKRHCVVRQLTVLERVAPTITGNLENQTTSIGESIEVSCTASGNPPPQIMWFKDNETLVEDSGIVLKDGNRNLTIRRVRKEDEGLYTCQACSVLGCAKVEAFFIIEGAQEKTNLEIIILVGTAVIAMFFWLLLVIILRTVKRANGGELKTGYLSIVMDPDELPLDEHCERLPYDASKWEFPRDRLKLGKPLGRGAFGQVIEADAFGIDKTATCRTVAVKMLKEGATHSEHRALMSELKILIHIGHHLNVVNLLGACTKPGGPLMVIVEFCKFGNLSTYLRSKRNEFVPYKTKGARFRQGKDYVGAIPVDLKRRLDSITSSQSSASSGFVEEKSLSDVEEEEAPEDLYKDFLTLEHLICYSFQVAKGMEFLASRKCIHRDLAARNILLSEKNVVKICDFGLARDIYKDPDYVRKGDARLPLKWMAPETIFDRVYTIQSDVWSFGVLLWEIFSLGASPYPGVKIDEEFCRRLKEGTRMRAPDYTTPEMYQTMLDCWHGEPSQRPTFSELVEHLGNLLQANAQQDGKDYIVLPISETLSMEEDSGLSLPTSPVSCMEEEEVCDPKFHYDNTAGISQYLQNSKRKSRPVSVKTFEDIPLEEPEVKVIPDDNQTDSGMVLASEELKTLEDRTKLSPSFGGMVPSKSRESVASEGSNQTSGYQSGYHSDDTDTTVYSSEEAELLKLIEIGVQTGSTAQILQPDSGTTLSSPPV
The compounds listed here are annotated with their inhibition at 0.5 µM.
quantity: inhibition at 0.5 µM (%)

>>> df
                                    compound  numeric_value
 0  C=CC(=O)Nc1ccc(Sc2ccnc(Nc3ccc(S(N)(=O)=O)cc3)n2)cc1 [Compound 352]            100
 1  C/C=C/C(=O)Nc1ccc(Sc2ccnc(Nc3ccc(N4CCOCC4)cc3)n2)cc1 [Compound 59]            100
 2  C=CC(=O)Nc1ccc(Sc2nc(Nc3ccc(N4CCOCC4)cc3)ncc2C)c(C)c1 [Compound 163]             97
 3  C=CC(=O)Nc1ccc(Sc2nc(Nc3ccc(OCCN4CCOCC4)cc3)ncc2C)cc1 [Compound 290]             95
 4  O=C(CCNc1ccccc1)Nc1ccc(Sc2ccnc(Nc3ccccc3)n2)cc1 [Compound 351]            100
 5  C=CC(=O)Nc1ccc(Sc2ccnc(Nc3cccc(S(N)(=O)=O)c3)n2)cc1 [Compound 364]             96
 6  CC(=O)Nc1ccc(Sc2nc(Nc3ccc(N4CCOCC4)cc3)ncc2C)cc1 [Compound 135]             95
 7  N#Cc1nnn(Cc2ccc(Sc3ccnc(Nc4ccc(N5CCOCC5)cc4)n3)cc2)n1 [Compound 156]             97
 8  N#Cc1nnnn1Cc1ccc(Sc2ccnc(Nc3ccc(N4CCOCC4)cc3)n2)cc1 [Compound 155]             98
 9  CC#CC(=O)Nc1ccc(Sc2nc(Nc3ccc(N4CCOCC4)cc3)ncc2C)cc1 [Compound 125]            100
10  C=CC(=O)Nc1ccc(Sc2ccnc(Nc3ccc(N4CCC(N5CCCC5)CC4)cc3)n2)cc1 [Compound 87]            100
11  C=CC(=O)Nc1ccc(Sc2ccnc(Nc3ccc(N4CCS(=O)(=O)CC4)cc3)n2)cc1 [Compound 99]            100
12  C=CC(=O)Nc1ccc(Sc2ccnc(Nc3cccc(OC)c3)n2)cc1 [Compound 105]            100
13  C=CC(=O)Nc1ccc(Sc2ccnc(Nc3ccc(F)c(C#N)c3)n2)cc1 [Compound 354]            100
14  C=CC(=O)Nc1ccc(Sc2nc(Nc3cccc(OC)c3)ncc2C)cc1 [Compound 235]             96
15  C=CC(=O)N1CCc2cc(Sc3nc(Nc4ccc(N5CCOCC5)cc4)ncc3C)ccc21 [Compound 170]             97
16  C=CC(=O)Nc1ccc(Sc2nc(Nc3ccc(NS(C)(=O)=O)cc3)ncc2C)cc1 [Compound 285]             94

====

biological target: BaF3 TELJAK2 cells (BafT_J2) (Homo sapiens, UniProt O60674); construct: fused on or other part: TEL (ETV6) N-terminal part, coding nucleotides 1-487, serves as the oligomerising partner; It is fused through a Sal I site to the JAK2 kinase domain and expressed from pTRE2 in BaF3 cells bearing pTET-off; P41212 (Transcription factor ETV6); experiment: Cellular screening, BaF3 TEL:JAK2 cells, Alamar Blue; assay type: cell-based; details: 40 hr, read-out: BafT_J2 IC50_nM
Sequence (O60674 whole entry, change not shown, the tested form may be a part): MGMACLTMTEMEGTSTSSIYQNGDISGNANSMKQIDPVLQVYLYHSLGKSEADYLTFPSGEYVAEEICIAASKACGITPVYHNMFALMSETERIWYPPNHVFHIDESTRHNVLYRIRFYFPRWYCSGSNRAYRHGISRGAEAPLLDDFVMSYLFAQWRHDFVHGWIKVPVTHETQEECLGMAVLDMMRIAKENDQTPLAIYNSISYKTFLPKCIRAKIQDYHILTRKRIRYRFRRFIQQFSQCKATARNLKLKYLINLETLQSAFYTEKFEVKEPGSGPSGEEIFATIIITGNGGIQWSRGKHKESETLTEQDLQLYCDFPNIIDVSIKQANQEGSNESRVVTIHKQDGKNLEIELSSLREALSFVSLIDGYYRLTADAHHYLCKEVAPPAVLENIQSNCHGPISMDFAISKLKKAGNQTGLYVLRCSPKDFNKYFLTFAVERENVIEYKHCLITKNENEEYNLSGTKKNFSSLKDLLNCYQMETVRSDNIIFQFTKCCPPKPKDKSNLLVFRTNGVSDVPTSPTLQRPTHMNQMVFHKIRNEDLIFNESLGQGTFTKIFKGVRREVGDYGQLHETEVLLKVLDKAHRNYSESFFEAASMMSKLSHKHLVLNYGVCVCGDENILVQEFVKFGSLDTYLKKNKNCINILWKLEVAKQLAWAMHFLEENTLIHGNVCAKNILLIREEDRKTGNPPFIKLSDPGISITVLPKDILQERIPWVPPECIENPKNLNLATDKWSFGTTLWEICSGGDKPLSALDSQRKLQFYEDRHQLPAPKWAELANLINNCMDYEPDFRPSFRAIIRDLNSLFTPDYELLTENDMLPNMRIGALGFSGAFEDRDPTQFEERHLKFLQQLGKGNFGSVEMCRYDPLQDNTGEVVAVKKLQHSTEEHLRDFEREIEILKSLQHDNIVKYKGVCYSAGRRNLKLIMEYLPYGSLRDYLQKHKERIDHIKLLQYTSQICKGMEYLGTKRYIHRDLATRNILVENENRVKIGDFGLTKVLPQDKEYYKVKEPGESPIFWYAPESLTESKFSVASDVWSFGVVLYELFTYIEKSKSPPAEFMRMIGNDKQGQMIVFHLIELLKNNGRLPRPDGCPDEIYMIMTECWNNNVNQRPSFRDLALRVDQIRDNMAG
quantity: GI50

>>> df
                                    compound  quantity   result
 0  C=CC(=O)Nc1ccc(Sc2nc(Nc3cccc(N4CCOCC4)c3)ncc2C)cc1      GI50   < 5 µM
 1  CCOC(=O)/C=C/C(=O)Nc1ccc(Sc2nc(Nc3ccc(N4CCOCC4)cc3)ncc2C)cc1      GI50  > 20 µM
 2  C=CC(=O)Nc1ccc(Sc2nc(Nc3ccc(N4CCC(CO)CC4)cc3)ncc2C)cc1      GI50  > 20 µM
 3  C=CC(=O)NCc1cccc(Sc2ccnc(Nc3ccc(N4CCOCC4)cc3)n2)c1      GI50  < 20 µM
 4  O=C(/C=C/Cl)Nc1ccc(Sc2ccnc(Nc3ccc(N4CCOCC4)cc3)n2)cc1      GI50  > 20 µM
 5  C=CC(=O)Nc1ccc(Sc2nc(Nc3cccc(N4CCN(C)CC4)c3)ncc2C)cc1      GI50   < 5 µM
 6          C=CC(=O)Nc1cccc(Nc2nccc(SC)n2)c1      GI50  < 20 µM
 7  C=CC(=O)Nc1ccc(Sc2ccnc(Nc3ccc(S(=O)(=O)NCc4ccccc4)cc3)n2)cc1      GI50  < 20 µM
 8  C=CC(=O)Nc1ccc(Sc2ccnc(Nc3cccc(S(=O)(=O)N4CCN(C)CC4)c3)n2)cc1      GI50  < 20 µM
 9  CC#CC(=O)Nc1ccc(Sc2nc(Nc3ccc(N4CCOCC4)cc3)ncc2C)cc1      GI50  < 20 µM
10  O=C(Nc1ccc(Sc2ccnc(Nc3ccc(N4CCOCC4)cc3)n2)cc1)C1CC1(F)Cl (stereo not shown)      GI50   < 1 µM
11  NC(=O)c1ccc(Sc2ccnc(Nc3ccc(N4CCOCC4)cc3)n2)cc1      GI50  > 20 µM
12  C=CC(=O)Nc1ccc(Sc2nc(Nc3ccc(NS(C)(=O)=O)cc3)ncc2C)cc1      GI50   < 5 µM
13  COc1cc(Nc2nccc(Sc3ccc(NCC#N)cc3)n2)cc(OC)c1OC      GI50   < 5 µM
14  C=CC(=O)Nc1ccc(Sc2nc(Nc3ccc(N4CCOCC4)cc3)ncc2C)cc1C      GI50  < 20 µM
15  O=C(/C=C\Cl)Nc1ccc(Sc2ccnc(Nc3ccc(N4CCOCC4)cc3)n2)cc1      GI50   < 1 µM
16  Nc1ccc(Sc2nc(Nc3cccc(N4CCOCC4)c3)ncc2I)cc1      GI50   < 5 µM
17  C=CC(=O)Nc1ccc(Sc2ccnc(Nc3cccc(S(N)(=O)=O)c3)n2)cc1      GI50   < 5 µM
18  C=CC(=O)Nc1ccc(Sc2nc(Nc3ccc(O)cc3)ncc2C)cc1      GI50  < 20 µM
19  Nc1ccc(Sc2nc(Nc3ccc(N4CCOCC4)cc3)ncc2I)cc1      GI50   < 5 µM
20  Cc1cnc(Nc2ccc(N3CCOCC3)cc2)nc1Sc1ccc(NC(=O)CSCC(=O)O)cc1      GI50  > 20 µM
21  C=CC(=O)Nc1ccc(Sc2nc(Nc3ccc(N4CCOCC4)cc3)ncc2C)c(Cl)c1      GI50  > 20 µM
22  C=CC(=O)Nc1ccc(Sc2ccnc(Nc3ccc(S(=O)(=O)N4CCN(C)CC4)cc3)n2)cc1      GI50  < 20 µM
23       Cc1cnc(Nc2ccc(O)cc2)nc1Sc1ccc(N)cc1      GI50   < 5 µM
24         CC#CC(=O)Nc1cccc(Nc2nccc(SC)n2)c1      GI50   < 5 µM
25  O=C(CCl)Nc1cccc(Sc2ccnc(Nc3ccc(N4CCOCC4)cc3)n2)c1      GI50   < 5 µM
26  Cc1cc(N)ccc1Sc1nc(Nc2ccc(N3CCOCC3)cc2)ncc1C      GI50  < 20 µM
27  C=CC(=O)Nc1ccc(Sc2ccnc(Nc3cccc(S(=O)(=O)NCc4ccccc4)c3)n2)cc1      GI50  < 20 µM
28  C=CC(=O)Nc1ccc(Sc2nc(Nc3ccc(OCCCN(CC)CC)cc3)ncc2C)cc1      GI50   < 5 µM
29  C=CC(=O)Nc1ccc(Sc2ccnc(Nc3ccc(C#N)cc3)n2)cc1      GI50  < 20 µM
30  C=CC(=O)Nc1ccc(Sc2ccnc(Nc3cccc([N+](=O)[O-])c3)n2)cc1      GI50   < 5 µM
31  c1cc(Sc2ccc(Cn3cnnn3)cc2)nc(Nc2ccc(N3CCOCC3)cc2)n1      GI50  < 20 µM
32  Cc1cnc(Nc2ccc(N3CCOCC3)cc2)nc1Sc1ccc(NC(=O)CCC(=O)O)cc1      GI50  < 20 µM
33  C=CC(=O)Nc1ccc(Sc2nc(Nc3cccc(CO)c3)ncc2C)cc1      GI50  < 20 µM
